conditionDescription: rat, in vivo, iv, 10 ug/kg, t½
Ends that are not written are not given here.
assayReadout: half-life (min)
Write down the numeric answer in min and omit the unit.

Query: Tell me half-life reported for HVEGTFTSDWSSYLEEQAAKEFIAWLIKGRGSSGAPPPS [Compound 5]
Reply: 11.9

###

assayMethodText: in vivo
conditionDescription: Sprague Dawley, rat, iv, 10 ug/kg, Plasma Concentration
Ends that are not written are not given here.
assayReadout: level at 0.25 h

Query: Using the record for HVEGTFTSDWSSYLEEQAAKEFIAWLIKGRGSSGAPPPS [Compound 5] , state its measured level at 0.25 h.
Reply: 16.1 ng/mL

###

assayMethodText: Pharmacokinetics after single intravenous dose in rats
conditionDescription: rat, in vivo, iv, 10 ug/kg, Cl, individual rats; single i.v. 10 μg/kg, Sprague Dawley rats
Ends that are not written are not given here.
assayReadout: clearance (mL/min/kg)
Quick reminder: number only, in mL/min/kg, skip the unit.

Query: Read the entry HVEGTFTSDVSSYLEEQAAKEFIAWLIKGGPSSGDPPPS [Compound 2] and write its reported clearance.
Reply: 19.5

Query: Please supply the value of reported clearance for the item HVEGTFTSDVSSYLEEQAAKEFIAWLIKGGPSSGDPPPS-NH2 [Compound 1]
Reply: 19.8

Query: Annotate the substance HVEGTFTSDVSSYLEEQAAKEFIAWLVKGRGSSGAPPPS [Compound 3] with its measured clearance.
Reply: 21.4

###

assayMethodText: Pharmacokinetics after single intravenous dose in rats
conditionDescription: rat, in vivo, iv, 10 ug/kg, Cl, Mean of 4 rats; single i.v. 10 μg/kg, Sprague Dawley rats
Ends that are not written are not given here.
assayReadout: clearance

Query: Identify the reported clearance for the following entry. HVEGTFTSDVSSYLEEQAAKEFIAWLVKGRGSSGAPPPS [Compound 3]
Reply: 21 mL/min/kg

Query: Complete the entry with clearance for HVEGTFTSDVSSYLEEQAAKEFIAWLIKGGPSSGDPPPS [Compound 2]
Reply: 24.8 mL/min/kg

Query: Give the reported clearance for this substance. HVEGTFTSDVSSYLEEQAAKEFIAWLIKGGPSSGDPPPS-NH2 [Compound 1]
Reply: 21.1 mL/min/kg

###

Kindly supply the reported AUC(0-t) values for the records listed here.
assayMethodText: Pharmacokinetics after single intravenous dose in rats
conditionDescription: rat, in vivo, iv, 10 ug/kg, AUC0-last, individual rats; single i.v. 10 μg/kg, Sprague Dawley rats
Ends that are not written are not given here.
Report only the number, with the unit ng·h/mL understood.

Query: Return AUC(0-t) for the following substance: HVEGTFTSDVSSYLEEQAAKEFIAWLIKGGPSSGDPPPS-NH2 [Compound 1]
Reply: 8.41

Query: Specify reported AUC(0-t) for the substance shown: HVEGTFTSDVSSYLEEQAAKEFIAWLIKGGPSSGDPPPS [Compound 2]
Reply: 8.55

Query: Specify measured AUC(0-t) for HVEGTFTSDVSSYLEEQAAKEFIAWLVKGRGSSGAPPPS [Compound 3] .
Reply: 7.78

###

assayMethodText: Dog hyperglycemic clamp study, GLP-1 peptide concentration
Set-up: species or system dogs
conditionDescription: in vivo, iv; infusion rate 3 pmol/kg/min i.v.; dog hyperglycemic clamp; after 60 minutes of infusion; mean ± SEM; read-out: Compound Concentration (t = 60′)
Ends that are not written are not given here.
assayReadout: level at time molar at 1 h (nM)
All answers are understood in nM, so give the number only.

Query: Please indicate level at time molar at 1 h recorded for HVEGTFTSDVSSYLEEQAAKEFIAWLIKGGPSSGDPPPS [Compound 2]
Reply: 0.755

Query: Annotate the substance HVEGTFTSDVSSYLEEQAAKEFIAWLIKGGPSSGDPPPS-NH2 [Compound 1] with its measured level at time molar at 1 h.
Reply: 0.977
